Recorded values, source ChEMBL document CHEMBL2417515.

Test system: Mycolicibacterium smegmatis
Assay: Antimicrobial activity against Mycobacterium smegmatis ATCC 607 after 48 to 72 hrs by double microdilution method
Format: functional
The source made the active and inactive calls. The calls are words filed in the database; no cut-off is given here.
PROPERTY_LABEL: MIC

Completed entries (count: 4):
SMILES_REPR: COc1ccc(/C=N\NC(=O)CN2CCN(c3ccccc3OC)CC2)cc1O
TESTED_ON: Mycolicibacterium smegmatis
MIC: 31.3 µg/mL

SMILES_REPR: CCn1cc(C(=O)O)c(=O)c2cc(F)c(N3CCN(C(=O)CCl)CC3)cc21
TESTED_ON: Mycolicibacterium smegmatis
MIC: 0.42 µg/mL

SMILES_REPR: CCn1cc(C(=O)O)c(=O)c2cc(F)c(N3CCN(c4ccc(NC(=S)NCCCN5CCOCC5)cc4F)CC3)cc21
TESTED_ON: Mycolicibacterium smegmatis
MIC: inactive

SMILES_REPR: CCn1cc(C(=O)O)c(=O)c2cc(F)c(N3CCN(c4ccc(N)cc4F)CC3)cc21
TESTED_ON: Mycolicibacterium smegmatis
MIC: 1.95 µg/mL

# input molecule: CCn1cc(C(=O)O)c(=O)c2cc(F)c(N3CCN(c4ccc(/N=c5\sc(-c6ccc(Cl)cc6)cn5Cc5ccccc5)cc4F)CC3)cc21 ; wanted: its MIC
inactive

# input molecule: COc1ccccc1N1CCN(CC(=O)N/N=C\c2ccccc2O)CC1 ; wanted: its MIC
31.3 µg/mL

# input molecule: CCn1cc(C(=O)O)c(=O)c2cc(F)c(N3CCN(c4ccc(NC(=S)NCc5ccccc5)cc4F)CC3)cc21 ; wanted: its MIC
0.97 µg/mL

* * *

System: Staphylococcus aureus
Assay: Antimicrobial activity against Staphylococcus aureus ATCC 25923 after 18 to 24 hrs by double microdilution method
Assay type: functional
Calls of active or inactive are those of the source. The rule behind the calls is not given here.
PROPERTY_LABEL: MIC

Completed entries (count: 4):
COMPOUND: CCn1cc(-c2ccc(Cl)cc2)s/c1=N\c1ccc(N2CCN(c3cc4c(cc3F)c(=O)c(C(=O)O)cn4CC)CC2)c(F)c1
PROPERTY_LABEL: MIC
OBSERVED_MEASUREMENT: inactive
--
COMPOUND: CCn1cc(C(=O)O)c(=O)c2cc(F)c(N3CCN(c4ccc(NC(=S)NCc5ccccc5)cc4F)CC3)cc21
PROPERTY_LABEL: MIC
OBSERVED_MEASUREMENT: < 1.9 µg/mL
--
COMPOUND: CCn1cc(C(=O)O)c(=O)c2cc(F)c(N3CCN(c4ccc([N+](=O)[O-])cc4F)CC3)cc21
PROPERTY_LABEL: MIC
OBSERVED_MEASUREMENT: inactive
--
COMPOUND: CCNC(=S)Nc1ccc(N2CCN(c3cc4c(cc3F)c(=O)c(C(=O)O)cn4CC)CC2)c(F)c1
PROPERTY_LABEL: MIC
OBSERVED_MEASUREMENT: inactive

Now turn to the next compound.
# input compound: CC1(C)S[C@@H]2[C@H](NC(=O)[C@H](N)c3ccccc3)C(=O)N2[C@H]1C(=O)O [AMPICILLIN] ; wanted: its MIC
35 µg/mL

* * *

MIC: recorded values
Test system: Staphylococcus aureus
Assay: Antimicrobial activity against Staphylococcus aureus ATCC 25923 after 18 to 24 hrs by double microdilution method
Type: functional

SMILES_REPR: CCn1cc(C(=O)O)c(=O)c2cc(F)c(N3CCN(c4ccc(NC(=O)NCc5ccccc5)cc4F)CC3)cc21
MIC: 500 µg/mL
//
SMILES_REPR: CCn1cc(C(=O)O)c(=O)c2cc(F)c(N3CCN(C(=O)CCl)CC3)cc21
MIC: 0.21 µg/mL
//
SMILES_REPR: COc1ccccc1N1CCN(CC(=O)N/N=C\c2ccccc2O)CC1
MIC: 31.3 µg/mL
//
SMILES_REPR: CCn1cc(C(=O)O)c(=O)c2cc(F)c(N3CCN(c4ccc(N)cc4F)CC3)cc21
MIC: < 1.9 µg/mL
//
SMILES_REPR: CCn1cc(C(=O)O)c(=O)c2cc(F)c(N3CCN(c4ccc(NC(=S)NCCCN5CCOCC5)cc4F)CC3)cc21
MIC: 15.6 µg/mL
//
SMILES_REPR: CCN1CC(=O)S/C1=N\c1ccc(N2CCN(c3cc4c(cc3F)c(=O)c(C(=O)O)cn4CC)CC2)c(F)c1
MIC: 250 µg/mL
//
SMILES_REPR: COc1ccc(/C=N\NC(=O)CN2CCN(c3ccccc3OC)CC2)cc1O
MIC: 31.3 µg/mL

# input compound: CCn1cc(C(=O)O)c(=O)c2cc(F)c(N3CCN(c4ccc(/N=C5\SC(=O)CN5Cc5ccccc5)cc4F)CC3)cc21 ; wanted: its MIC
125 µg/mL

* * *

System: Candida albicans
Experiment: Antimicrobial activity against Candida albicans ATCC 60193 after 18 to 24 hrs by double microdilution method
Assay type: functional
The source made the active and inactive calls. No cut-off for these calls is given here.
PROPERTY_LABEL: MIC

SMILES_REPR: CCNC(=S)Nc1ccc(N2CCN(c3cc4c(cc3F)c(=O)c(C(=O)O)cn4CC)CC2)c(F)c1
MIC: 250 µg/mL

SMILES_REPR: CCn1cc(C(=O)O)c(=O)c2cc(F)c(N3CCN(c4ccc(NC(=S)NCCCN5CCOCC5)cc4F)CC3)cc21
MIC: inactive

SMILES_REPR: CCn1cc(C(=O)O)c(=O)c2cc(F)c(N3CCN(c4ccc(NC(=S)NCc5ccccc5)cc4F)CC3)cc21
MIC: inactive

SMILES_REPR: CCn1cc(-c2ccc(Cl)cc2)s/c1=N\c1ccc(N2CCN(c3cc4c(cc3F)c(=O)c(C(=O)O)cn4CC)CC2)c(F)c1
MIC: inactive

SMILES_REPR: CCn1cc(C(=O)O)c(=O)c2cc(F)c(N3CCN(c4ccc(NC(=O)NCc5ccccc5)cc4F)CC3)cc21
MIC: 500 µg/mL

# input compound: CCn1cc(C(=O)O)c(=O)c2cc(F)c(N3CCN(C(=O)CCl)CC3)cc21 ; wanted: its MIC
inactive

# input compound: COc1ccc(/C=N\NC(=O)CN2CCN(c3ccccc3OC)CC2)cc1O ; wanted: its MIC
62.5 µg/mL

# input compound: CCn1cc(C(=O)O)c(=O)c2cc(F)c(N3CCN(c4ccc(/N=c5\sc(-c6ccc(Cl)cc6)cn5Cc5ccccc5)cc4F)CC3)cc21 ; wanted: its MIC
250 µg/mL

* * *

Test system: Mycolicibacterium smegmatis
Assay: Antimicrobial activity against Mycobacterium smegmatis ATCC 607 after 48 to 72 hrs by double microdilution method
Format: functional
Calls of active or inactive are those of the source. The rule behind the calls is not given here.
PROPERTY_LABEL: MIC

Completed entries (count: 5):
COMPOUND: CCn1cc(C(=O)O)c(=O)c2cc(F)c(N3CCN(c4ccc(NC(=O)NCc5ccccc5)cc4F)CC3)cc21
MIC: inactive
//
COMPOUND: CCNC(=S)Nc1ccc(N2CCN(c3cc4c(cc3F)c(=O)c(C(=O)O)cn4CC)CC2)c(F)c1
MIC: inactive
//
COMPOUND: CN[C@@H]1[C@H](O[C@H]2[C@H](O[C@H]3[C@H](O)[C@@H](O)[C@H](N=C(N)N)[C@@H](O)[C@@H]3N=C(N)N)O[C@@H](C)[C@]2(O)C=O)O[C@@H](CO)[C@H](O)[C@H]1O [STREPTOMYCIN]
MIC: 4 µg/mL
//
COMPOUND: CCn1cc(-c2ccc(Cl)cc2)s/c1=N\c1ccc(N2CCN(c3cc4c(cc3F)c(=O)c(C(=O)O)cn4CC)CC2)c(F)c1
MIC: inactive
//
COMPOUND: CCn1cc(C(=O)O)c(=O)c2cc(F)c(N3CCN(c4ccc(/N=C5\SC(=O)CN5Cc5ccccc5)cc4F)CC3)cc21
MIC: 62.5 µg/mL

# input compound: CCn1cc(C(=O)O)c(=O)c2cc(F)c(N3CCN(c4ccc([N+](=O)[O-])cc4F)CC3)cc21 ; wanted: its MIC
inactive

# input compound: CCN1CC(=O)S/C1=N\c1ccc(N2CCN(c3cc4c(cc3F)c(=O)c(C(=O)O)cn4CC)CC2)c(F)c1 ; wanted: its MIC
inactive

* * *

Target: Urease (Canavalia ensiformis, UniProt P07374)
Sequence (P07374 whole entry): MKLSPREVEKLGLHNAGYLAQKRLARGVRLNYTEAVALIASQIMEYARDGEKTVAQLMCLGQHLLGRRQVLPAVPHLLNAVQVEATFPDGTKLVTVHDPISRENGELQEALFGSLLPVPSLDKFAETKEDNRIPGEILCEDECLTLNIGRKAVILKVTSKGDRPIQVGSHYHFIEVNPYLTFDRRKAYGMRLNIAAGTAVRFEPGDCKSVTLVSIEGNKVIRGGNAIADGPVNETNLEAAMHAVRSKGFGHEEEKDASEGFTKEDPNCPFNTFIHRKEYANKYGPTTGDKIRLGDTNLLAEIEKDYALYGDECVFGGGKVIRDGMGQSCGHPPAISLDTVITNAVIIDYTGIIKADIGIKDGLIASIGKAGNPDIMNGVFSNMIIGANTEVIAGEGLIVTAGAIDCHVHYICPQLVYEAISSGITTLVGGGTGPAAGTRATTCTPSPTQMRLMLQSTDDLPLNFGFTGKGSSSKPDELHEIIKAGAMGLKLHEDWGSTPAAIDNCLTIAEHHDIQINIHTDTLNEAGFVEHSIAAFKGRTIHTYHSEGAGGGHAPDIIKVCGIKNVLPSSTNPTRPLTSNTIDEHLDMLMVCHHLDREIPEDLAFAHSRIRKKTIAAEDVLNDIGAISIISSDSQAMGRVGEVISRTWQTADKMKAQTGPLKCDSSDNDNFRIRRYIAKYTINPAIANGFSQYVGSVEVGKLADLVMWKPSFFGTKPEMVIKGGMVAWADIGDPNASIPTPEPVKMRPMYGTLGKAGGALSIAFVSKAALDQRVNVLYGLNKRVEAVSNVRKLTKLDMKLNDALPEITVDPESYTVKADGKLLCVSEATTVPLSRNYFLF
Assay: Inhibition of Jack bean urease using urea as substrate assessed as production of ammonia after 15 mins
IC50: recorded values
Give the value, in units of µM, as a plain number.

SMILES_REPR: NC(N)=S
OBSERVED_MEASUREMENT: 678

# input compound: CCn1cc(C(=O)O)c(=O)c2cc(F)c(N3CCN(C(=O)CSc4nnc(CN5CCN(c6ccccc6OC)CC5)n4-c4ccccc4)CC3)cc21 ; wanted: its IC50
27.7

* * *

Tested on: Candida albicans
Test: Antimicrobial activity against Candida albicans ATCC 60193 after 18 to 24 hrs by double microdilution method
Assay type: functional
Calls of active or inactive are those of the source. The rule behind the calls is not given here.
PROPERTY_LABEL: MIC

SMILES_REPR: CCn1cc(C(=O)O)c(=O)c2cc(F)c(N3CCN(c4ccc([N+](=O)[O-])cc4F)CC3)cc21
MIC: inactive

SMILES_REPR: CCN1CC(=O)S/C1=N\c1ccc(N2CCN(c3cc4c(cc3F)c(=O)c(C(=O)O)cn4CC)CC2)c(F)c1
MIC: 250 µg/mL

SMILES_REPR: OC(Cn1cncn1)(Cn1cncn1)c1ccc(F)cc1F
MIC: < 8 µg/mL

SMILES_REPR: CCn1cc(C(=O)O)c(=O)c2cc(F)c(N3CCN(c4ccc(N)cc4F)CC3)cc21
MIC: inactive

SMILES_REPR: COc1ccccc1N1CCN(CC(=O)N/N=C\c2ccccc2O)CC1
MIC: 250 µg/mL

Now turn to the next compound.
Can you look up MIC on Candida albicans for CCn1cc(C(=O)O)c(=O)c2cc(F)c(N3CCN(c4ccc(/N=C5\SC(=O)CN5Cc5ccccc5)cc4F)CC3)cc21 ?
250 µg/mL
